Taken from BindingDB's records for doi:10.1016/j.chembiol.2007.10.017.

Dear all, this message contains pIC50 results, target or system Monoglyceride lipase (Rattus norvegicus, UniProt Q8R431).
pIC50: −log10 of the molar value.

These recorded examples may help you get a feel for the data.
{"Compound": "O=C(Nc1cccc(-c2ccccc2)c1)OC1CCCCC1 [cyclohexyl biphenyl-3-ylcarbamate]", "Test Value": 3.65}
{"Compound": "O=C(Nc1cccc(-c2ccccc2)c1)SC1CCCCC1", "Test Value": "< 3.52"}
{"Compound": "O=C(Nc1cccc(Oc2cccc(-c3ccccc3)c2)c1)OC1CCCCC1", "Test Value": "< 3.52"}
{"Compound": "O=C(Nc1cccc(-c2ccccc2)c1)Oc1cccc(-c2ccccc2)c1", "Test Value": "< 3.52"}
{"Compound": "Cc1cccc(-c2cccc(NC(=O)OC3CCCCC3)c2)c1", "Test Value": "< 3.52"}

Record `O=C(Nc1ccccc1)OC1CCCCC1` ; system Monoglyceride lipase (Rattus norvegicus, UniProt Q8R431); pIC50 = < 3.52

Record `O=C(CC1CCCCC1)Nc1cccc(-c2ccccc2)c1` ; system Monoglyceride lipase (Rattus norvegicus, UniProt Q8R431); pIC50 = < 3.52

Record `O=C(Nc1ccc(-c2ccccc2)cc1)OC1CCCCC1` ; system Monoglyceride lipase (Rattus norvegicus, UniProt Q8R431); pIC50 = < 3.52

Record `CC1(C)OCC(OC(=O)Nc2cccc(-c3ccccc3)c2)CO1` ; system Monoglyceride lipase (Rattus norvegicus, UniProt Q8R431); pIC50 = < 3.52
